# assay procedure: PK study in rats
# Type: in vivo, SD rats
# experimental setup: SD, rat, plasma, 20 mg/kg single oral dose
observable: Cmax (ng/mL)
Answer format: numeric, ng/mL implied, no suffix.

Output measured Cmax for this item: "CNCC[C@H](Oc1cccc2c1OCO2)c1cccs1" 400

* * *

# System: P-gp
# assay procedure: Bidirectional permeability measurements in MDCK-MDR1 monolayers
# Format: in vitro ADME, canine
# experimental setup: dog, MDCK-MDR1, with verapamil 100 μmol/L; 1 μg/mL, verapamil 100 μmol/L
# Protocol: MDCK-MDR1 cells at passage 17 were cultured in DMEM supplemented with 10% FBS, 1% glutamine, 100 U/mL penicillin/streptomycin, 1% NEAA, and 1 mmol/L sodium pyruvate. […] Cell monolayers were preincubated with HBSS for 15 min at 37°C. […] The B→A transporter was evaluated by adding 1,200 μL of ammoxetine solution to the B-side (donor chamber) and 400 μL of HBSS solution to the A-side (receiver chamber). […] The supernatants were analyzed using an LC-MS-MS method. […]
observable: Papp A→B at 120 min, 1 μg/mL (×10⁻⁶ cm/s)
Write the number in ×10⁻⁶ cm/s without appending the unit.

Supply reported Papp A→B at 120 min, 1 μg/mL belonging to this molecule: "CNCC[C@H](Oc1cccc2c1OCO2)c1cccs1" 28.8

* * *

# assay procedure: Tissue distribution study in rats
# Type: in vivo
# experimental setup: rat, kidney, po, 20 mg/kg, 20 mg/kg oral, kidney, read-out: AUC(0→t),tissue/AUC(0→t),blood
observable: Kp
Give the figure only, with no unit attached.

Look up and report measured Kp for this entry: "CNCC[C@H](Oc1cccc2c1OCO2)c1cccs1" 37.7

* * *

# assay procedure: PK studies in beagle dogs
# Format: in vivo
# experimental setup: male, beagle, dog, plasma, po, 12.5 mg/kg, beagle dogs, 12.5 mg/kg single oral dose
observable: AUC(0-inf) (ng·h/mL)
Number in ng·h/mL, nothing else.

Let me know recorded AUC(0-inf) for "CNCC[C@H](Oc1cccc2c1OCO2)c1cccs1" , thanks. 8400

* * *

# assay procedure: PK studies in beagle dogs
# Format: in vivo
# experimental setup: male, beagle, dog, plasma, po, 5 mg/kg, male beagle dogs, 5 mg/kg single oral dose, fasted (first dose); read-out: MRT(0-t)
observable: MRT last

For the compound "CNCC[C@H](Oc1cccc2c1OCO2)c1cccs1" , report MRT last. 4.4 h

* * *

# assay procedure: Bidirectional permeability measurements in MDCK-MDR1 monolayers
# Assay type: in vitro ADME, canine
# experimental setup: dog, MDCK-MDR1; 5 μg/mL, 2 h
observable: Papp A→B at 2 h, 5 μg/mL (×10⁻⁶ cm/s)
Write the value in ×10⁻⁶ cm/s as a bare number.

Determine from records and report Papp A→B at 2 h, 5 μg/mL for "CNCC[C@H](Oc1cccc2c1OCO2)c1cccs1" 13.2

* * *

# assay procedure: PK studies in beagle dogs
# Type: in vivo
# experimental setup: male, beagle, dog, plasma, po, 2 mg/kg, beagle dogs, 2 mg/kg single oral dose
observable: AUC(0-inf) (ng·h/mL)
Form entry: value (ng·h/mL) — number only.

Fill in AUC(0-inf) for record "CNCC[C@H](Oc1cccc2c1OCO2)c1cccs1" 420

* * *

# assay procedure: PK studies in beagle dogs
# Assay type: in vivo
# experimental setup: male, beagle, dog, plasma, po, 5 mg/kg, beagle dogs, 5 mg/kg oral, fed (nonfasting); read-out: MRT(0-∞)
observable: MRT inf (h)
Entry rule: numbers only, all in h.

Specify measured MRT inf for "CNCC[C@H](Oc1cccc2c1OCO2)c1cccs1" . 4.28

* * *

# assay procedure: PK study in rats
# Assay type: in vivo, SD rats
# experimental setup: SD, rat, plasma, 20 mg/kg single oral dose
observable: AUC(0-inf) (ng·h/mL)
The reply should contain only the number, in ng·h/mL.

# return recorded AUC(0-inf) for entry "CNCC[C@H](Oc1cccc2c1OCO2)c1cccs1" 3400

* * *

# assay procedure: PK studies in beagle dogs
# Type: in vivo
# experimental setup: male, beagle, dog, plasma, po, 5 mg/kg, male beagle dogs, 5 mg/kg single oral dose, fasted (first dose); read-out: MRT(0-∞)
observable: MRT inf
Write the figure, then the unit, nothing else.

For "CNCC[C@H](Oc1cccc2c1OCO2)c1cccs1" , write its MRT inf. 4.7 h

* * *

# assay procedure: PPB assay by ultrafiltration, human plasma
# Format: in vitro ADME, humans
# experimental setup: 50 ng/mL, read-out: Percentage of ammoxetine-protein binding rate (%) (converted)
observable: fraction unbound at 1 h, 50 ng/mL

Fill in fraction unbound at 1 h, 50 ng/mL for record "CNCC[C@H](Oc1cccc2c1OCO2)c1cccs1" 0.415

* * *

# assay procedure: PK studies in beagle dogs
# Type: in vivo
# experimental setup: male, beagle, dog, plasma, po, 5 mg/kg, male beagle dogs, 5 mg/kg single oral dose, fasted (first dose); read-out: t1/2z (converted)
# Experimental: For the PK studies in rats and dogs, a total of 18 SD rats and 15 male beagle dogs were randomly divided into three groups, with six rats or five dogs per group, respectively. […] To determine the concentration of ammoxetine, 100 μL of L-phencynonate (IS, 50 ng/mL) and 300 μL of methanol were added to 100 μL of plasma samples from rats or dogs. […] F was calculated using the formula: F=AUCp.o./AUCi.v.×100% . […]
observable: half-life (h)
Write down the numeric answer in h and omit the unit.

Quickly give me recorded half-life for "CNCC[C@H](Oc1cccc2c1OCO2)c1cccs1" 3.81

* * *

# assay procedure: PK studies in beagle dogs
# Type: in vivo
# experimental setup: male, beagle, dog, plasma, po, 2 mg/kg, beagle dogs, 2 mg/kg single oral dose
observable: Cmax (ng/mL)
Provide the reading as a plain figure in ng/mL.

Using known records, supply Cmax for "CNCC[C@H](Oc1cccc2c1OCO2)c1cccs1" 165

* * *

# assay procedure: PK studies in beagle dogs
# Assay type: in vivo
# experimental setup: female, beagle, dog, plasma, po, 5 mg/kg, female beagle dogs, 5 mg/kg oral, fasted; read-out: MRT(0-t)
observable: MRT last (h)
Answer format: numeric, h implied, no suffix.

Complete the entry with MRT last for "CNCC[C@H](Oc1cccc2c1OCO2)c1cccs1" 3.74

* * *

# assay procedure: PPB assay by ultrafiltration, rat plasma
# Type: in vitro ADME, rats
# experimental setup: 150 ng/mL, read-out: Percentage of ammoxetine-protein binding rate (%) (converted)
observable: fraction unbound at 1 h, 150 ng/mL
Please reply with the value in numeric form only.

Please give measured fraction unbound at 1 h, 150 ng/mL of the following entry: "CNCC[C@H](Oc1cccc2c1OCO2)c1cccs1" 0.447

* * *

# assay procedure: PK studies in beagle dogs
# Assay type: in vivo
# experimental setup: male, beagle, dog, plasma, po, 12.5 mg/kg, beagle dogs, 12.5 mg/kg single oral dose; read-out: MRT(0-∞)
observable: MRT inf (h)
Number only, in h; omit the unit.

Item CNCC[C@H](Oc1cccc2c1OCO2)c1cccs1 [ammoxetine] : provide MRT inf 7.53

* * *

# assay procedure: PK studies in beagle dogs
# Format: in vivo
# experimental setup: male, beagle, dog, plasma, po, 5 mg/kg, beagle dogs, 5 mg/kg oral, fed (nonfasting); read-out: Tmax
observable: Tmax (min)
Note: unit min is implicit; provide only the numeric part.

Return value of Tmax for input "CNCC[C@H](Oc1cccc2c1OCO2)c1cccs1" , no commentary. 48

* * *

# assay procedure: PK studies in beagle dogs
# Assay type: in vivo
# experimental setup: female, beagle, dog, plasma, po, 5 mg/kg, female beagle dogs, 5 mg/kg oral, fasted; read-out: MRT(0-∞)
observable: MRT inf (h)
Give the value in h but do not write h after it.

Quickly give me recorded MRT inf for "CNCC[C@H](Oc1cccc2c1OCO2)c1cccs1" 3.88

* * *

# assay procedure: PK studies in beagle dogs
# Type: in vivo
# experimental setup: female, beagle, dog, plasma, po, 5 mg/kg, female beagle dogs, 5 mg/kg oral, fasted; read-out: Tmax
observable: Tmax
I'd appreciate it if you included the unit after the number.

Identify measured Tmax associated with "CNCC[C@H](Oc1cccc2c1OCO2)c1cccs1" 51 min

* * *

# Tested on: P-gp (MDR1)
# assay procedure: Bidirectional permeability measurements in MDCK-MDR1 monolayers
# Assay type: in vitro ADME, canine
# experimental setup: dog, MDCK-MDR1; 0.2 μg/mL; read-out: ER [Papp(B→A)⁄Papp(A→B)]
observable: efflux ratio at 120 min, 0.2 μg/mL
Reply with just the number.

Could you please provide reported efflux ratio at 120 min, 0.2 μg/mL for "CNCC[C@H](Oc1cccc2c1OCO2)c1cccs1" ? Thanks! 1.67

* * *

# test system: CYP 3A4 (Homo sapiens, UniProt P08684)
# Sequence (P08684 whole entry): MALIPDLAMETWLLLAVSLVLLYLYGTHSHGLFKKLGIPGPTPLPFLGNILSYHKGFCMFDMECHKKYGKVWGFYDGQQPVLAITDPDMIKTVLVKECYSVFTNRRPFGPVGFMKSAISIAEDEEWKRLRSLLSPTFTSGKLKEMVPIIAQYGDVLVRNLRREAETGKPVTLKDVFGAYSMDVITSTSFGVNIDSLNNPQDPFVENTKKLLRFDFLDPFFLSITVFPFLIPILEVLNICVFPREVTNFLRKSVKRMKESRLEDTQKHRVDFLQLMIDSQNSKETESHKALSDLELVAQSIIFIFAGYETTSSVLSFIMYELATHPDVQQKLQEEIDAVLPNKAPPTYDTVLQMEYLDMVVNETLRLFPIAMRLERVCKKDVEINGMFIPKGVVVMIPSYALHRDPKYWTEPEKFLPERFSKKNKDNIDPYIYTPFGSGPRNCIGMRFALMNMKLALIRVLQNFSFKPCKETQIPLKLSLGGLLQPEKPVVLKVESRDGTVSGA
# assay procedure: CYP inhibition, cocktail-substrate method in HLM
# experimental setup: probes testosterone and midazolam
observable: IC50

Answer with the recorded IC50 of "CNCC[C@H](Oc1cccc2c1OCO2)c1cccs1" only. > 100 µM
